target_system: human μ opiate receptor (Homo sapiens, UniProt P35372)
Construct: purchased PerkinElmer Life Sciences, Zaventem, Belgium RB-HOM; host or cells: CHO-K1 cells (recombinant expression)
Sequence (P35372 whole entry): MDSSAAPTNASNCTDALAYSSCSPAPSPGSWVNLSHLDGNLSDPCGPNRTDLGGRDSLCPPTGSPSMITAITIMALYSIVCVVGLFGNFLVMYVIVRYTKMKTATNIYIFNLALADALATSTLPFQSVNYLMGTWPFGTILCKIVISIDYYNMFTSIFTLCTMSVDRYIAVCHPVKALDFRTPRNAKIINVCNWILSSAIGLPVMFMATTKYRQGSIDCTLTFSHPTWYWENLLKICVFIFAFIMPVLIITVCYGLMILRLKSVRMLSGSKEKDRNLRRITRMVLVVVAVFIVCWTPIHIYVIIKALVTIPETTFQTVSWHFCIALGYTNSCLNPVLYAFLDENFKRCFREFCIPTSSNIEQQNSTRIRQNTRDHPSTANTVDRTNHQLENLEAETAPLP
measurement_notes: Affinity for the human μ opiate receptor ([3H]-naloxone displacement, CHO-K1 membrane preparation, SPA)
Type: binding
applied_conditions: compounds prepared via automated synthesis; single measurements at a test concentration of 1 μM
Below, each entry is listed alongside its reported μ opioid receptor [1 μmol], % inhibition.

>  <molecule>
CC(C)C(=O)N1CCc2c([nH]c3ccccc23)C12CCC(C(c1ccccc1)N(C)C)CC2 (stereo not drawn)

>  <μ opioid receptor [1 μmol], % inhibition [%]>
74

$$$$
>  <molecule>
COc1ccc(CC(=O)N2CCc3c([nH]c4ccccc34)C23CCC(C(c2ccc(F)cc2)N(C)C)CC3)cc1OC (stereo not drawn)

>  <μ opioid receptor [1 μmol], % inhibition [%]>
29

$$$$
>  <molecule>
CN(C)C(c1ccc(F)cc1)C1CCC2(CC1)c1[nH]c3ccccc3c1CCN2C(=O)CC(C)(C)C (stereo not drawn)

>  <μ opioid receptor [1 μmol], % inhibition [%]>
12

$$$$
>  <molecule>
CN(C)C(c1ccc(Cl)cc1)C1CCC2(CC1)c1[nH]c3ccccc3c1CCN2C(=O)Cc1cccs1 (stereo not drawn)

>  <μ opioid receptor [1 μmol], % inhibition [%]>
21

$$$$
>  <molecule>
CN(C)C(c1cccc(F)c1)C1CCC2(CC1)c1[nH]c3ccccc3c1CCN2C(=O)Cc1ccc(F)cc1 (stereo not drawn)

>  <μ opioid receptor [1 μmol], % inhibition [%]>
20

$$$$
>  <molecule>
COc1ccc(CC(=O)N2CCc3c([nH]c4ccccc34)C23CCC(C(c2ccccc2)N(C)C)CC3)cc1OC (stereo not drawn)

>  <μ opioid receptor [1 μmol], % inhibition [%]>
55

$$$$
